All values here come from the supplement of paper PMC11502859.

Below, each of the substances is paired with its reported median enrichment value.
- Test system: HEK293T
- EXPERIMENT: median enrichment of reporter reads in eGFP-reduced (low/intermediate) vs eGFP-high sorted cells (eGFP-extension fusion abundance) (ratio); higher = stronger loss of eGFP-fusion protein abundance (more destabilising extension)

| SUBSTANCE | median enrichment |
| --- | --- |
| SHGGVRSCPCSESTFPAIPGAGGACASAIPCDQAPRGRDQRGRKHCACAELSASARRASLPNQPWVPGSRLEPAINSLFLAPG [TSSK6] | 4.1 |
| KKEKKQAILDENANGKIHITSYLL [PRDM4] | 6.45 |
| YELWGAHTPQSS [IL17A] | 1.09 |
| QEGPGGPAVLSPAPLGGVW [GALNT2] | 0.738 |
| GVPAHSCGKGGEGRRARPEQGAGGRAQYLTRAAVLINVPMAGPRSEPASSATVTFSLRDGGGGSLSRWLSRPRSRPWVLSQLG [DUSP9] | 4.83 |
| QNNVSYFSIKDHLKLLIPNIN [DMAC2L] | 12.2 |
| WSICLLNDTSLIYCTIS [RTCA] | 12.5 |
| YYVIRNLVAWPYLAAREPGRYVAGRLGMCPVKNSVDSLIKKKRKKDTMGTLYLVFILCMYRSSKKLHRISVTLYASGKQDWEL [CFAP61] | 41.5 |
| SVLPSVTSNSGKRKLK [STARD13] | 0.451 |
| KAAWPQYGPLFAGFSSSLEPPSVGGPPISPLKPALLFWGDPLLLSFPKHGVPWPAFFLCLWWGWGGLFLLAPSGGGGQVTRSG [JUP] | 4.75 |
| SAPPGTPSTPSIFSTKALVVSTLLPNGHTPKWPVGRESWSTCSGMVWWKRG [CLIC1] | 11 |
| REQQMELWERGEQWGYRESSSALPLGQPHLPAVSPGHFSTSQVEVLQGPAATCIRRTSFSA [SPATA19] | 4.52 |
| YIMRHTV [TBC1D32] | 5.87 |
| LYPFPIHSQINYNGC [SCNM1] | 7.94 |
| CELLPCPSFPPCTT [FEZF2] | 0.681 |
| SGSIFLIDEKNNSVMAIYPC [NDUFA1] | 9.19 |

* * *

Below, each of the substances is paired with its reported median enrichment value.
- Test system: HEK293T
- EXPERIMENT: median enrichment of reporter reads in eGFP-reduced (low/intermediate) vs eGFP-high sorted cells (eGFP-extension fusion abundance) (ratio); higher = stronger loss of eGFP-fusion protein abundance (more destabilising extension)

| SUBSTANCE | median enrichment |
| --- | --- |
| RTILELTRFVCL [KRTAP20-1] | 7.89 |
| QCMSLV [CCDC6] | 0.689 |
| SQFNLKFLISPTTIY [TSEN2] | 8.83 |
| RIFCLVASQLGVL [GXYLT2] | 6.32 |
| YGIRLSCFKNVRESHILLMANCYINGNT [CBWD1] | 1.39 |
| RGAGTCDRLWWHH [NAGA] | 1.53 |
| LARAPRGHLGRPREAEGHGVGGSRRVPASMVPALDLQLP | 5.4 |
| YPSLCHWVECAFRAS [ARHGEF6] | 7.57 |
| QEWKSGSSRYSFMLCSCEQSTKFE [LMLN] | 7.78 |
| RSHTACSFGCD [EIF2B5] | 0.722 |
| YYYYYY [Tyr06] | 2.81 |
| RHSTRPPGLLGPPTPTALTAFPIAPGSSPPLGGTVKGSSLTRRLLLPLGSQLPPQESLLGRTLRTPSLHPVVL [KLC4] | 9.71 |
| YLCISRAHTYIVAYSQHGSRPALLI [RANBP9] | 2.61 |
| QQFSHFLHLSDRTHHLCLP [ZDHHC15] | 20.5 |
| RAWVLTPGRATLSDLKMRILGTGCLSPQQNQNESLKAQDSAFATLPLSWYRRWM [ZNF410] | 8.88 |
| LAGVFVPVSLILSRH [KCNS3] | 5.72 |
| QRPLPGPSPAPRAPRPGPGARQTPACAPAERRLETGATASRVQQHSRHGSGRDSAWPRGTFPGQGPGGNWHGLVPLLCCILIP [ANKRD13B] | 7.68 |
| LSGAQE [HELLS] | 0.562 |
| SNNQQYSRSNQHHHVIMVLWHICNIKILN [ACOX2] | 5.11 |
| SSSSLFLGNSLLFLPHGRCK [MAX] | 4.93 |
| KSTSSHETE [UNC5D] | 1.07 |
| TQWAPCTPVSGAVRLGYIVNSASTERLALRASSESSSSGTPPKPTPPGTPLSGIPAKRRTLSRSRPPHPQSVAPPTEQPRFGP [PRRT1] | 0.999 |
| YDGAVTERTQESGTPPGIPSTFSCSWERPGGGAHWEGQDSVPALILPCPDVSCFAQRSFLSTPLIPRLVPREGWRPGHGPSRR [ASIC4] | 4.69 |
| RVYTRTMWYVARPGPGVRLGQPQLSLPLLLIQGVTRHLSLCYFWPQQEPVLGYFCPCSSQPNSGLAHPSPPPKAAEAVGGTGP [KCNJ11] | 4.66 |
| RERTTPSLPSMDGHSSAASSATSCSQPMPGGAAIFSPHHPFTHS [EHMT2] | 0.484 |
| YKVPLANCLEAQHNPKALFR [HIST1H1E] | 6.29 |
| QTGQDPSTCTC [FCN1] | 0.258 |
| LRLIIYQEC [PKIB] | 6.92 |
| LAPASGLAIPLLSADYGVSTFGHNTYSPFTLYHSATNHRTDHLRLFLLALCVQDSLIHFCW [GIGYF2] | 35.9 |
| QDSQLHRRLLPGLLLGRPPACPPCVSTPPARLPAGPSTPCVHTTSNLIGADVFIFLEFLFML [DDA1] | 7.88 |
| YLYHYSRSSSQHHLLATWDV [GCG] | 12.4 |
| YRLLSKHRFSR [Degron FEM1A/C] | 5.74 |
| REAGLPVLLPQGPLWLFTNKDPFVK [BCL7C] | 6.88 |
| KEHLWFT [NPAP1] | 1.2 |
| IIIIIII [Ile07] | 11 |
| YGWWQPGFWPRAPPPD [PHC2] | 2.07 |
| LLLLLLLLLL [Leu10] | 14.7 |
| WSPQHQGGPSLKRKEPTQVRGLPIPPSQVSTFALPPSHWGPCRSWSGLTVPSPGTQLKGPQPKL [CAND2] | 8.57 |
| LRASPRRDGKKIYKYISF [CYP2U1] | 7.5 |
| WLVAIFQHSSCIL [LVRN] | 13.3 |

* * *

- Tested on: HEK293T
- EXPERIMENT: median enrichment of reporter reads in eGFP-reduced (low/intermediate) vs eGFP-high sorted cells (eGFP-extension fusion abundance) (ratio); higher = stronger loss of eGFP-fusion protein abundance (more destabilising extension)
VALUE_TYPE: median enrichment

| SEQUENCE_CONTENT | VALUE_TYPE | VALUE_MEASURED |
| --- | --- | --- |
| RRKCLLPW [PKD1L2] | median enrichment | 1.93 |
| IYPSPGSPGHSVLSKTRMWYQLWKRKVSCQQYLLPSRQPSQVRHLLRSHREPGVCTSWKSCHQPGHSSHRIDQRACFLIQENE [SPSB4] | median enrichment | 7.01 |
| WNLLSMILPATPLPSLAQSRGAMLSAHPSCTLAPCSRDVSTHSLC [MYPOP] | median enrichment | 7.81 |

* * *

Below, each of the sequences is paired with its reported median enrichment value.
- System: HEK293T
- EXPERIMENT: median enrichment of reporter reads in eGFP-reduced (low/intermediate) vs eGFP-high sorted cells (eGFP-extension fusion abundance) (ratio); higher = stronger loss of eGFP-fusion protein abundance (more destabilising extension)

| SEQUENCE_CONTENT | STUDY_TARGET | median enrichment |
| --- | --- | --- |
| LSRLLASMDFSRDVDIVLRVH [DIP2C] | HEK293T | 10.3 |
| SREDVKCLSVNCSAVSKQSSNLQY [RIT1] | HEK293T | 0.34 |
| RRRRRRRR [Arg08] | HEK293T | 1.49 |

* * *

Below, each of the substances is paired with its reported median enrichment value.
- Tested on: HEK293T;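 also: lentiviral eGFP-IRES-mCherry reporter pool sorted by FACS 96 h post-transduction, gated on mCherry-high cells, Illumina read counts normalized per million, median across four biological replicates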
- EXPERIMENT: median enrichment of reporter reads in eGFP-reduced (low/intermediate) vs eGFP-high sorted cells (eGFP-extension fusion abundance) (ratio); higher = stronger loss of eGFP-fusion protein abundance (more destabilising extension)

| SUBSTANCE | median enrichment |
| --- | --- |
| LKEIWEIL [ZNF418] | 16.1 |
| WWWWWWWWW [Trp09] | 3.84 |
| QGPGLRREALSQRLPHPSPLAFNSVASCSPAAEPPRIRLHVTLKLTNFHGPH [FYN] | 20.4 |
| IIIIII [Ile06] | 8.61 |
| GANASRAAVNLCKD [BDKRB2] | 0.298 |
| YARWLRNTGEASAFGKEICFGDDLSGNLNLLL [GBA3] | 5.41 |
| CCCCCC [Cys06] | 12.4 |
| RAWLPACTPPLPPHESPPAGYRGRHAPGASPALGTTCLPAPPGPGPPAAPHFRRGLEQGEAGLWGAVREIYWGPQILL [ECEL1] | 4.03 |
| CETHNFISHSDHRLLNIADRNRSLQGV [TAS2R13] | 2.12 |
| RGSGQECHSQCPDPEIGPIPCLQPCLEAIQ [SLC22A14] | 2.88 |
| KCYRLNDSASRLPKSKALFRAAHSFPQKSS [HIST1H4E] | 8.92 |
| QLVKTMGVVLTQPPIPQGASGQSFWHCSRIPPSWCVWRVGKAGRDINLEENT [ARHGEF25] | 6.94 |
| SLYQKPEVE [UGT2B17] | 0.724 |
| GGGTGLTF [CARS] | 0.299 |
| EKYHLPYAARDLQTFFLPFW [SPAG11A] | 6.64 |
| GACFAVGHPAKQANMETTCNLARLYLV [DDX3X] | 17.6 |
| WPSLPPKPRACLSAQLEGPRLQGVLPQSRCFLCIRDPLPSHPVSCLHRWIIFEPPCVDHFEPPGLAQFILIKVFLGGILGT [PARVG] | 9.47 |
| WVPSEVFIPACVI [VPS13B] | 13.3 |
| WCSYLFFSSLS [LAMTOR5] | 13.3 |
| SMALVALEWDPALTSPRANLGGAEGALGHRKQGKKGRSCGEMTLIFDCYPNLDL [NDRG2] | 7.41 |
| ESSTLLLQWVQKLLRPVVK [MYLK3] | 7 |
| WAVSLTCPGTPAPGLGRELTRTGCSQKAGPSLSPKPLLDLWRSCRLDREAVPLSSPSPSRASPWSFRSSFWGLFQVRRMEEGG [FOXN4] | 4.84 |
| YKMIVLTPYTNVLLLALIKLLEG [MAX] | 15.5 |
| FFFFFF [Phe06] | 9.02 |
| VSGIMRRPWGMN [Degron APPBP2] | 10.2 |
| LPARPHGQPVASCRPHSPGTVSCLCVRPPLPCLLRHPPPHIHTQRFDKLLVFNE [SMTN] | 7.46 |
| LVLRLRATPLPSACSFPGIFVSF [EPS15L1] | 18 |
| YTCGEGLSWTRPLPTASSLQVQLKPLSSGGRHVERAGRPTAAENRAGTGSSCSAFPSFGDAGSAAPKHLPAPHSTVSEDSSLL [CDC14B] | 0.953 |
| WFSPVICSINGLIINVSLRHDKHFNTQ [DNAAF1] | 13.3 |
